# experimental_target: C-terminally biotinylated HTTQ23 in complex with HAP40 (UniProt P23610 1-371, biotin on the C-terminal Avi-tag)
# Sequence (P42858 other isoform, or with tags, fused parts or gaps, chain 1 of 2): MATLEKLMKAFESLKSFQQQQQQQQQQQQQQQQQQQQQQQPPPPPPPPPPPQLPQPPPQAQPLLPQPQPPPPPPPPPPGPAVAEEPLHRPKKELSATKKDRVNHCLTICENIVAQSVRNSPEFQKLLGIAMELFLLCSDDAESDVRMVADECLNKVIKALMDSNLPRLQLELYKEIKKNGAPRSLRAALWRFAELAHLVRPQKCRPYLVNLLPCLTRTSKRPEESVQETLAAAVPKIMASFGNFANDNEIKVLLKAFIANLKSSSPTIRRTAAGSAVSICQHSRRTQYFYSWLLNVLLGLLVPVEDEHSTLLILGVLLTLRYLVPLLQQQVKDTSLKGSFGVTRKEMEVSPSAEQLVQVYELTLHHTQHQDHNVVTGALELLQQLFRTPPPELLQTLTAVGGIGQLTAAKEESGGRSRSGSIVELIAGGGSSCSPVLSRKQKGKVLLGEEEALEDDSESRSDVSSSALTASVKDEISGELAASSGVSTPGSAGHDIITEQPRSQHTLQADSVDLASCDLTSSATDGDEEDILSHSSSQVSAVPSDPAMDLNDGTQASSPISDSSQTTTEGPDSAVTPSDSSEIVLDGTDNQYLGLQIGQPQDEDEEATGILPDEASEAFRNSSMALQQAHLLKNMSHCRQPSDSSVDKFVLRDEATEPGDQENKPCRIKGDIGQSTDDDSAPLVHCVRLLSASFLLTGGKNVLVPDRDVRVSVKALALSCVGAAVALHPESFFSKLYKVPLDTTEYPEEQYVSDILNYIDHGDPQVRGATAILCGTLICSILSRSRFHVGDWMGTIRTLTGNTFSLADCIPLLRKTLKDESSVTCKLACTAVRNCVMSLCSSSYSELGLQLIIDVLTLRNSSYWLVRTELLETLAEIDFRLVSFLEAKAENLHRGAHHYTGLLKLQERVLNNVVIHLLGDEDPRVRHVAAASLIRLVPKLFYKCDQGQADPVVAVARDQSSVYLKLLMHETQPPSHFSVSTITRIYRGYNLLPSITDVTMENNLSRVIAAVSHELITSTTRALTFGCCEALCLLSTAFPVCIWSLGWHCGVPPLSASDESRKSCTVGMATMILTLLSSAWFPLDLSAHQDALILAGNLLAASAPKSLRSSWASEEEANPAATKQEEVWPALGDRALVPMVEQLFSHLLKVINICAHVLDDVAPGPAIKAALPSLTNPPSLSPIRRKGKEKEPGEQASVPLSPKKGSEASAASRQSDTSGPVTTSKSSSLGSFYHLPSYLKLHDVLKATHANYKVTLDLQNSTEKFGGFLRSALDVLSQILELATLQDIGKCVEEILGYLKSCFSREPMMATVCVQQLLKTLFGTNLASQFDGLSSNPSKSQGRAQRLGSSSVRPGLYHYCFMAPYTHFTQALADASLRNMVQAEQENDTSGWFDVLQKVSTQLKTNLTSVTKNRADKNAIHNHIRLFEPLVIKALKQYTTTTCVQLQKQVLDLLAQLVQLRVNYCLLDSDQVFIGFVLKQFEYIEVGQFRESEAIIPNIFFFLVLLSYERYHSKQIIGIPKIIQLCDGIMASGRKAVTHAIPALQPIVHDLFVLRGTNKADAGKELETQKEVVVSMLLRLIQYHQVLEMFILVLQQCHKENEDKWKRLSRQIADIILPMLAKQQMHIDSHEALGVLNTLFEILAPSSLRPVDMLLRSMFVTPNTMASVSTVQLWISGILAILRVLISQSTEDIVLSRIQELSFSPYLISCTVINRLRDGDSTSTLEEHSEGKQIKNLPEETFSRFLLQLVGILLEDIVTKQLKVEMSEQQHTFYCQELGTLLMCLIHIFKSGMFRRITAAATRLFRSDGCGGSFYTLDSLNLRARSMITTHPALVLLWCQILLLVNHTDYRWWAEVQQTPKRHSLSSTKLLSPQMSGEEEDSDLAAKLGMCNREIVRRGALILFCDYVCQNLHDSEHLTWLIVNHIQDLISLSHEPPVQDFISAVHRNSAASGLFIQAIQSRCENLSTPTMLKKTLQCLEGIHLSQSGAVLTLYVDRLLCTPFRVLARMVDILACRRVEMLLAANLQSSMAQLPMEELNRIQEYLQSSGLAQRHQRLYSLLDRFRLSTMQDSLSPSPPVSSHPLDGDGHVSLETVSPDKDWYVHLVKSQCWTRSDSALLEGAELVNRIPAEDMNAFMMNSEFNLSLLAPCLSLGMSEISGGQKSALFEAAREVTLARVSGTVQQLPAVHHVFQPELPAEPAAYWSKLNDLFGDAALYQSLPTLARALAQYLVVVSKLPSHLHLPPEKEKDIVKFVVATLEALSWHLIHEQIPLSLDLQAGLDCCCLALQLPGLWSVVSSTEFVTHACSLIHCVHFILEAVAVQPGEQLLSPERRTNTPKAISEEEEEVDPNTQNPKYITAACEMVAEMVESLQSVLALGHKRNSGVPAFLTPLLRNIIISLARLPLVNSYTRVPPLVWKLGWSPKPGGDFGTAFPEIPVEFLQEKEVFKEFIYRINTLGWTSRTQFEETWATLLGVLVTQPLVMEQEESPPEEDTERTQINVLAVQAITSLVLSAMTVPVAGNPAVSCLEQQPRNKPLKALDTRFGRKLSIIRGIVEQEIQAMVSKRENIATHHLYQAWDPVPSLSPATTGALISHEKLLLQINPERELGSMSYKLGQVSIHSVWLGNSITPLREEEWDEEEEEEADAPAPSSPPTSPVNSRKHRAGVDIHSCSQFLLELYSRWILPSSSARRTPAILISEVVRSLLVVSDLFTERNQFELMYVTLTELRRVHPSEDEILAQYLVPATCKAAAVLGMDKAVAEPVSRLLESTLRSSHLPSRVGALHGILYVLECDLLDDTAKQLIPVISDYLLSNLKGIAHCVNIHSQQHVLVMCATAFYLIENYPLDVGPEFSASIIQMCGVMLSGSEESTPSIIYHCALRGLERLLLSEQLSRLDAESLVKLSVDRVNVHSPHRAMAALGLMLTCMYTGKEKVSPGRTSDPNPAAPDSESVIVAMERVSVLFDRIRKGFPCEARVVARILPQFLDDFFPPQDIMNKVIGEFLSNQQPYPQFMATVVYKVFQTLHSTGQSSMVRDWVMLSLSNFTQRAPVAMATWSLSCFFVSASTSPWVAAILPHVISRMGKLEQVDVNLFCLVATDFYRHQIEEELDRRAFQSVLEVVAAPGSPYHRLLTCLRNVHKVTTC
# Sequence (P23610 whole entry, chain 2 of 2): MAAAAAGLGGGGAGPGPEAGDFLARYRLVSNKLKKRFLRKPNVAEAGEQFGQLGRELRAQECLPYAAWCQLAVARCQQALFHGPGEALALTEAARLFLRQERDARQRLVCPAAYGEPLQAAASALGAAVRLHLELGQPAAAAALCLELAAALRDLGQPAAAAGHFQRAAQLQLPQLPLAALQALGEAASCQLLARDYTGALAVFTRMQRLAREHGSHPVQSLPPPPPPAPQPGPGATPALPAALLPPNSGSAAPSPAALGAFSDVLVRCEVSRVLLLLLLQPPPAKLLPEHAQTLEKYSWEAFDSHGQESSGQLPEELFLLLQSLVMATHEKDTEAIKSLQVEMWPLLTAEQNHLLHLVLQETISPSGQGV
# test_name: SPR
pKd: −log10 of the molar value. Bridges are numbered along the chain shown (N, C = ends). Where no end group is shown, it is not given here. [ ]: non-standard residue; d: D form. The star is where a group is joined. ClAc = O=C(CCl)*
measured_metric: pKd

binder	measured_metric	reported_value
{CH2CO}-YLIRSSFNWFVFVEVPC (thioether N-17 (inferred), macrocyclic peptide selected by RaPID on HTT-HAP40; also called macrocycle HHL1; source: synthetic peptide (Fmoc SPPS, RP-HPLC), without tags) [HHL1]	pKd	8.15
{CH2CO}-YTARYLTLGTLHYKC (thioether N-15 (inferred)) [HL2]	pKd	8.70
ClAc-[dY]DIWCETNKQTGILVLC (thioether (positions not given here); also: thioether to downstream Cys, which of Cys5/Cys17 not given here) [HD4]	pKd	8.68
